# TGT: T1, monkey PD-L1 expressed on HEK293A cells (monkey (cynomolgus), UniProt Q9NZQ7 19-290 (human entry))
# T1 construct: Full-length cDNA expressed stably; also called HEK293A/monkey PD-L1 cells; HEK293A/monkey PD-L1
# TEST_DESCRIPTION: FACS on HEK293A/monkey PD-L1 cells, serially diluted antibody (protocol of Example 4)
ENDPOINT_NAME: binding result

BINDER: 3C2VH3VL3 (antibody, human IgG1, kappa, N297A, V domains shown, humanized 3C2 antibody) VH: QVQLVQSGAEVKKPGASVKVSCKASGYTFTDYHVNWVKQRPGQGLEWIGWIFPGSGRTFYTDKFKGRVTLTVDTSTSTVYMELSSLTSEDTAVYYCATDYGTSGYGLVYWGQGTTVTVSS VL: DIQMTQSPSSLSASVGDRVTISCKASDRINNWLAWYQQKPGNAPRLLISGATSLETGVPSRFSGSGSGTDYTFTISSLQPEDIATYYCQQYWNIPFTFGQGTKVEIKR
ENDPOINT_NAME: binding result
REPORTED: binds

BINDER: 3C2VH4VL3 (antibody, human IgG1, kappa, N297A, V domains shown, humanized 3C2 antibody) VH: QVQLVQSGAEVKKPGASVKVSCKASGYSFTDYHVNWVKQRPGQGLEWIGWIFPGSGRTFYTDKFKGRVTLTVDTSTSTVYMELSSLTSEDTAVYFCATDYGTSGYGLVYWGQGTTVTVSS VL: DIQMTQSPSSLSASVGDRVTISCKASDRINNWLAWYQQKPGNAPRLLISGATSLETGVPSRFSGSGSGTDYTFTISSLQPEDIATYYCQQYWNIPFTFGQGTKVEIKR
ENDPOINT_NAME: binding result
REPORTED: binds

BINDER: 3C2VH4VL2 (antibody, human IgG1, kappa, N297A, V domains shown, humanized 3C2 antibody) VH: QVQLVQSGAEVKKPGASVKVSCKASGYSFTDYHVNWVKQRPGQGLEWIGWIFPGSGRTFYTDKFKGRVTLTVDTSTSTVYMELSSLTSEDTAVYFCATDYGTSGYGLVYWGQGTTVTVSS VL: DIQMTQSPSSLSASVGDRVTITCKASDRINNWLAWYQQKPGKAPRLLISGATSLETGVPSRFSGSGSGTDYTFTISSLQPEDIATYYCQQYWNIPFTFGQGTKVEIKR
ENDPOINT_NAME: binding result
REPORTED: binds
